Assignment: determine reported pIC50 for the given molecules.
- TEST TARGET: ICAM-1 binding to immobilized Mac-1 (Homo sapiens, UniProt P05107+P11215)
- Construct: made in house; host or cells: transfected 293 cells (Mac-1)
- Sequence (P05107 23-769, other chains not shown): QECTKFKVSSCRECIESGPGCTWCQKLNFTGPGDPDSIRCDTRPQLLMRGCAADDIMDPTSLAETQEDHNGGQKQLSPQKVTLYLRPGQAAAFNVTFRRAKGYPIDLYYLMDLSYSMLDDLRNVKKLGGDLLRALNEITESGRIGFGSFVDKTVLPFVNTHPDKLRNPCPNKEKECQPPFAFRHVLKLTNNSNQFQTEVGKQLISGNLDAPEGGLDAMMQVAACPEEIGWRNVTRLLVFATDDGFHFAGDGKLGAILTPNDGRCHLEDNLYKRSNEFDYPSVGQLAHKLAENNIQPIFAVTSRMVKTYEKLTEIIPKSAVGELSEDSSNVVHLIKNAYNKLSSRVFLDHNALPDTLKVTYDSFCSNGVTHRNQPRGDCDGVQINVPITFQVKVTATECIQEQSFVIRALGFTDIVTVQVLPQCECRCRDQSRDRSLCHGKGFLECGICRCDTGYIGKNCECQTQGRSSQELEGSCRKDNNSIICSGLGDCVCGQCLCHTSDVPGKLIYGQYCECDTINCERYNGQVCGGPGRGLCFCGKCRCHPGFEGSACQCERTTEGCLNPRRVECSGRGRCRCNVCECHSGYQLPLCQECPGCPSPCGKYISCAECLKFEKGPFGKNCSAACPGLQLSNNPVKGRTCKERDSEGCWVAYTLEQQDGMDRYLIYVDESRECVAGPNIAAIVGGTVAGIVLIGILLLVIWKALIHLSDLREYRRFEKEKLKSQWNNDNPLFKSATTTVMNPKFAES
- TEST DETAILS: Mac-1/ICAM-1 screening assay (solid-phase ELISA)
- DETAILS: read-out: Mac-1/ICAM-1 Protein-Protein Assay IC50
Remember, pIC50 is on a log scale: it is -log10 of the molar concentration.

response.value for `O=C(NCc1cccc(O)c1)c1ccc(C(=O)N[C@@H](CNC(=O)c2sccc2Br)C(=O)O)c(Cl)c1` (field: pIC50) = 7.96

Given item `COc1cccc(C(=O)NC[C@H](NC(=O)c2ccc(C(=O)NCc3cccc(O)c3)cc2Cl)C(=O)O)c1` , the value recorded as its pIC50 is 8.17

GET /value?item= `Cc1cccc(C(=O)NC[C@H](NC(=O)c2ccc(C(=O)NCc3cccc(O)c3)cc2Cl)C(=O)O)n1` &field=pIC50 returns 7.40

According to the records, this molecule `COCCC1(C(=O)NC[C@H](NC(=O)c2ccc(C(=O)NCc3cccc(O)c3)cc2Cl)C(=O)O)CCCC1` displays pIC50 of 7.30

Recorded pIC50 (molecule `O=C(NCc1cccc(O)c1)c1ccc(C(=O)N[C@@H](CNC(=O)c2cccc(I)c2)C(=O)O)c(Cl)c1` ): 8.00

Recorded pIC50 (molecule `O=C(NCc1cccc(O)c1)c1ccc(C(=O)N[C@@H](CNS(=O)(=O)c2ccccc2)C(=O)O)c(Cl)c1` ): 6.22

The reported value for `O=C(NCc1cccc(O)c1)c1ccc(C(=O)N[C@@H](CNC(=O)c2cccc(Br)c2)C(=O)O)c(Cl)c1` in terms of pIC50 is 8.05

According to the records, this molecule `O=C(NCc1cccc(O)c1)c1ccc(C(=O)N[C@@H](CNC(=O)C2CC2)C(=O)O)c(Cl)c1` displays pIC50 of 6.92

Recorded result, `O=C(CC1c2ccccc2-c2ccccc21)NC[C@H](NC(=O)c1ccc(C(=O)NCc2cccc(O)c2)cc1Cl)C(=O)O` , pIC50: 6.56

Note to self: pIC50 recorded for `O=C(NCc1cccc(O)c1)c1ccc(C(=O)N[C@@H](CNC(=O)c2c3c(nc4ccccc24)CCCC3)C(=O)O)c(Cl)c1` was 6.38

Reported pIC50 of `O=C(Cc1cccc(C(F)(F)F)c1)NC[C@H](NC(=O)c1ccc(C(=O)NCc2cccc(O)c2)cc1Cl)C(=O)O` : 7.21

// sample `O=C(NCc1cccc(O)c1)c1ccc(C(=O)N[C@@H](CNC(=O)c2ccccc2Cl)C(=O)O)c(Cl)c1` , its pIC50 was 7.49

`O=C(CC1CCCC1)NC[C@H](NC(=O)c1ccc(C(=O)NCc2cccc(O)c2)cc1Cl)C(=O)O` yielded pIC50 of 7.60

`O=C(NCc1cccc(O)c1)c1ccc(C(=O)N[C@@H](CNC(=O)c2ccc(Cl)nc2)C(=O)O)c(Cl)c1` yielded pIC50 of 7.41

* * *

- System: cell-surface Mac-1 adhesion to immobilized fibrinogen (HL-60 cells)
- TEST DETAILS: Mac-1/Fibrinogen cell-based screening assay
- Design: species or system human
- DETAILS: Homo sapiens, HL-60, HL-60 cells; read-out: Mac-1/Fgn Cell based Assay IC50
Please provide measured pIC50 for the entries that follow.
Notebook: values listed as pIC50 are -log10 of the concentration (mol/L).

Data point: O=C(NCc1cccc(O)c1)c1cc(Cl)c(C(=O)N[C@@H](CNC(=O)c2cc(Br)c(Br)s2)C(=O)O)c(Cl)c1 [Example 356] ; pIC50 = 7.09

Lab book: pIC50 of O=C(NCc1cccc2[nH]ccc12)c1ccc(C(=O)N[C@@H](CNC(=O)c2ccccc2)C(=O)O)c(Cl)c1 [Example 314] noted as 6.79

Entry NCCCC(=O)NC[C@H](NC(=O)c1ccc(C(=O)NCc2cccc(O)c2)cc1Cl)C(=O)O [Example 261] — recorded pIC50 = 7.34

Recorded pIC50 (compound Cc1cc(C(=O)NCc2cccc(O)c2)cc(C)c1C(=O)N[C@@H](CNC(=O)c1cccs1)C(=O)O [Example 330] ): 8.22

* * *

Consider the following molecules; for each one, report its pIC50.
- TEST TARGET: LFA-1 binding to immobilized ICAM-1 (Homo sapiens, UniProt P05107+P20701)
- Construct: made in house; host or cells: transfected 293 cells (LFA-1)
- Sequence (P20701 26-1170, one chain of several): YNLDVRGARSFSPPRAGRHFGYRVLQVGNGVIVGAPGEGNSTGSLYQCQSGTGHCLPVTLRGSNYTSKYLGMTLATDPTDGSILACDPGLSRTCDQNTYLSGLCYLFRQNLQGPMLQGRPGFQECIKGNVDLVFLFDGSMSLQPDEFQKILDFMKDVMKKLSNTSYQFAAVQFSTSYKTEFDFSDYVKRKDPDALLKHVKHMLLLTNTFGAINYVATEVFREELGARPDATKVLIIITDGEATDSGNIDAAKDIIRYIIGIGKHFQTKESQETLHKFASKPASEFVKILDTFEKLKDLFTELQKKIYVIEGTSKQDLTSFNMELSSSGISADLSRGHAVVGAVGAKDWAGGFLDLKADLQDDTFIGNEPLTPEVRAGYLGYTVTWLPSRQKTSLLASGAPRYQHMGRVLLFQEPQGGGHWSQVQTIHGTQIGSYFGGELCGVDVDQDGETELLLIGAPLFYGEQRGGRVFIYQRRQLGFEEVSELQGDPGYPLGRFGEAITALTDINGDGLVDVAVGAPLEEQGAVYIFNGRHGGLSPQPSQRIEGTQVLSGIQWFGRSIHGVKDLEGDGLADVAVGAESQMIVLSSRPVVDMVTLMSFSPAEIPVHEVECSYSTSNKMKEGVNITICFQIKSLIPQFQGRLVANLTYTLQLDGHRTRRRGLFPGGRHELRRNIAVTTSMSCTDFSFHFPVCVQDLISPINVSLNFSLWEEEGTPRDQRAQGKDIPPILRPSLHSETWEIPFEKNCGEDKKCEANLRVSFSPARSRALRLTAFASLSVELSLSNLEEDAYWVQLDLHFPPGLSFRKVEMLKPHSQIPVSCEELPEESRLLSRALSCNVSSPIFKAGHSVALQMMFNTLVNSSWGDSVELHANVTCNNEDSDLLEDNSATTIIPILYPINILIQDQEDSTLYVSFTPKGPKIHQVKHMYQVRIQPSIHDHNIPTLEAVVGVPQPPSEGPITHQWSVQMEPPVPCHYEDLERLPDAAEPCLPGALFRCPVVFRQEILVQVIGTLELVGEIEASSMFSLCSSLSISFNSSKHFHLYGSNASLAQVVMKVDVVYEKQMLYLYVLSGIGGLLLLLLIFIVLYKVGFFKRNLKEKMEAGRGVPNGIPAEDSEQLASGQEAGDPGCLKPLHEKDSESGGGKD
- TEST DETAILS: LFA-1/ICAM-1 protein-protein assay (solid-phase ELISA)
- DETAILS: read-out: LFA-1/ICAM-1 Protein-Protein Assay IC50
- Protocol: (a) LFA-1/ICAM-1 screening test: LFA-1/ICAM-1 antagonist activity, defined as the ability of compounds of the invention to block LFA-1 binding to immobilized ICAM-1, was quantitated using a solid-phase ELISA. Typically, fusion protein consisting of the entire extracellular domain of human ICAM-1 and the Fc domain of human IgG (5dICAM-Ig) was coated onto 96-well microtiter plates (0.15 μg in 100 μL PBS) overnight at 4° C. […] The plates were then read at 450 nm. […]
The quantity pIC50 is defined as the negative base-10 logarithm of the molar concentration.

// field: pIC50; key: `O=C(O)c1cccc(C(=O)NC[C@H](NC(=O)c2ccc(C(=O)NCc3cccc(O)c3)cc2Cl)C(=O)O)c1` ; value = 9.10

Sure, the documented pIC50 for `O=C(NCc1cccc(O)c1)c1cc(Cl)c(C(=O)N[C@@H](CNC(=O)c2sccc2Cl)C(=O)O)c(Cl)c1` is 9.05

pIC50 reading for `O=C(NCc1cccc(O)c1)c1ccc(C(=O)N[C@@H](CNC(=O)c2ccoc2)C(=O)O)c(Cl)c1` : 8.92

Entry `Cc1ccc(C(=O)NC[C@H](NC(=O)c2ccc(C(=O)NCc3cccc4[nH]ccc34)cc2Cl)C(=O)O)s1` , pIC50 reported as 8.46

# pIC50 of `O=C(NCc1cccc(O)c1)c1ccc(C(=O)N[C@@H](CNC(=O)c2ccc(Cl)cc2)C(=O)O)c(Cl)c1` = 8.48

Reported pIC50 ( `N[C@@H](Cc1c[nH]c2ccccc12)C(=O)NC[C@H](NC(=O)c1ccc(C(=O)NCc2cccc(O)c2)cc1Cl)C(=O)O` ) = 8.12

Form field pIC50, entry `O=C(NCc1cccc(O)c1)c1ccc(C(=O)N[C@@H](CNC(=O)c2ccc(Cl)nc2)C(=O)O)c(Cl)c1` : 8.66

Looking up `O=C(NCc1cccc(O)c1)c1ccc(C(=O)N[C@@H](CNC(=O)c2ccc([N+](=O)[O-])o2)C(=O)O)c(Cl)c1` , I see its pIC50 listed as 8.54

So for `O=C(NCc1cccc(O)c1)c1ccc(C(=O)N[C@@H](CNC(=O)c2cccs2)C(=O)O)c(F)c1` , the logged pIC50 turned out to be 8.96

// sample `Cc1cccc(C(=O)NC[C@H](NC(=O)c2ccc(C(=O)NCc3cccc(O)c3)cc2Cl)C(=O)O)n1` , its pIC50 was 8.49

Record summary for `N[C@H]1Cc2ccccc2CN(CC(=O)NC[C@H](NC(=O)c2ccc(C(=O)NCc3cccc(O)c3)cc2Cl)C(=O)O)C1=O` : reported pIC50 = 8.72

Looking up `O=C(NCc1cccc(O)c1)c1ccc(C(=O)N[C@@H](CNC(=O)c2ccc3ncsc3c2)C(=O)O)c(Cl)c1` , I see its pIC50 listed as 9.00

Entry `O=C(NCc1cccc(O)c1)c1ccc(C(=O)N[C@@H](CNC(=O)c2cccc(I)c2)C(=O)O)c(Cl)c1` ; pIC50 = 8.82

Reported pIC50 of `O=C(NCc1cccc(O)c1)c1ccc(C(=O)N[C@@H](CNC(=O)C23CC4CC(CC(C4)C2)C3)C(=O)O)c(Cl)c1` : 9.30

* * *

- TEST TARGET: LFA-1 binding to immobilized ICAM-1 (Homo sapiens, UniProt P05107+P20701)
- Construct: made in house; host or cells: transfected 293 cells (LFA-1)
- TEST DETAILS: LFA-1/ICAM-1 protein-protein assay (solid-phase ELISA)
- DETAILS: read-out: LFA-1/ICAM-1 Protein-Protein Assay IC50
REPORTED METRIC: IC50 (nM)
The reply should be a number in nM, with the unit left off.

# IC50 of `O=C(NCc1cccc(O)c1)c1cc(Cl)c(C(=O)N[C@@H](CNC(=O)c2cccc(Cl)c2)C(=O)O)c(Cl)c1` = 1.3

The recorded IC50 for `O=C(NC[C@H](NC(=O)c1c(Cl)cccc1Cl)C(=O)O)c1ccccc1` is 13

Reported IC50 for `O=C(NCc1cccc(O)c1)c1cc(Cl)c(C(=O)N[C@@H](CNC(=O)c2cc(Br)c(Br)s2)C(=O)O)c(Cl)c1` was 3.4

response.value for `O=C(NCc1cccc(O)c1)c1ccc(C(=O)N[C@@H](CNC(=O)c2ccc([N+](=O)[O-])cc2)C(=O)O)c(Cl)c1` (field: IC50) = 2
